system.tested: T1, human TL1A extracellular domain with N-terminal HIS and FLAG tag (human) (UniProt O95150)
T1 sequence: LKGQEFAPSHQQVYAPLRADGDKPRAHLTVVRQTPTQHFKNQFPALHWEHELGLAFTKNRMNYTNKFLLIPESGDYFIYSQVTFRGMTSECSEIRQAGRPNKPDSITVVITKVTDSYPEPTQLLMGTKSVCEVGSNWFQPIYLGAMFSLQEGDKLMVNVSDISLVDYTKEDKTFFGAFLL
measurement.notes: cell-based or functional assay
observation.type: Fold improvement over 320-179, TL1A induced caspase potency assay in TF-1 cells (fold)

>  <binder>
320-189 (antibody, human IgG1, name in Kabat numbering, V domains shown, human IgG1, lambda) VH: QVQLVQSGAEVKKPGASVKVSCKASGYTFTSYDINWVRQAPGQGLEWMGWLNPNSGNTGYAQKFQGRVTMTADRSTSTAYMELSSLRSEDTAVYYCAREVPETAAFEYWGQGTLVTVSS VL: QSVLTQPPSVSGAPGQRVTISCTSSSSDIGAGLGVHWYQQLPGTAPKLLIEGYYNRPSGVPDRFSGSKSGTSASLTITGLKPEDEGDYYCQSYDGTLSALFGGGTKLTVLG

>  <value.unit>
fold

>  <measured.result>
0

$$$$
>  <binder>
320-207 (antibody, human IgG1, name in Kabat numbering, V domains shown, human IgG1, lambda) VH: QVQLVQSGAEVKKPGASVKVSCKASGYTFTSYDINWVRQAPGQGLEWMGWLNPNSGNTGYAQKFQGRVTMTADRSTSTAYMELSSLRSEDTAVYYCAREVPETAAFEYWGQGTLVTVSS VL: QSVLTQPPSVSGAPGQRVTISCTWSSSDIGAGLGVHWYQQLPGTAPKLLIEGYYNRPSGVPDRFSGSKSGTSASLTITGLLPEDEGDYYCQSYDGTLSALFGGGTKLTVLG

>  <value.unit>
fold

>  <measured.result>
3

$$$$
>  <binder>
320-191 (antibody, human IgG1, name in Kabat numbering, V domains shown, human IgG1, lambda) VH: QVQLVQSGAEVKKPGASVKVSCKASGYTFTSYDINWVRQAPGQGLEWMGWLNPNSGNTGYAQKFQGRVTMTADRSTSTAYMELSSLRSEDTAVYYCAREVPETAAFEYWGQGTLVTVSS VL: QSVLTQPPSVSGAPGQRVTISCTSSSSDIGAGLGVHWYQQLPGTAPKLLIEGYYNRPSGVPDRFSGSKSGTSASLTITGLYPEDEGDYYCQSYDGTLSALFGGGTKLTVLG

>  <value.unit>
fold

>  <measured.result>
2

$$$$
>  <binder>
320-190 (antibody, human IgG1, name in Kabat numbering, V domains shown, human IgG1, lambda) VH: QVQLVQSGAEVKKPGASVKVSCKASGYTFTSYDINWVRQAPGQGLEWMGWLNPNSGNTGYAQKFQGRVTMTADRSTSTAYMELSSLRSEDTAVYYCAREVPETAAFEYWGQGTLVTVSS VL: QSVLTQPPSVSGAPGQRVTISCTSSSSDIGAGLGVHWYQQLPGTAPKLLIEGYYNRPSGVPDRFSGSKSGTSASLTITGLWPEDEGDYYCQSYDGTLSALFGGGTKLTVLG

>  <value.unit>
fold

>  <measured.result>
2

$$$$
>  <binder>
320-302 (antibody, human IgG1, name in Kabat numbering, V domains shown, human IgG1, lambda) VH: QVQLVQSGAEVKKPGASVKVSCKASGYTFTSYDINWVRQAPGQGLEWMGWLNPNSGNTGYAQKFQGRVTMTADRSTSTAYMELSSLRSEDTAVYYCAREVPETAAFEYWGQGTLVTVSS VL: QSVLTQPPSVSGAPGQRVTISCTSSSSDIGAGLGVAWYQQLPGTAPKLLIEGYYNRPSGVPDRFSGSKSGTSASLTITGLLPEDEGDYYCQSYDGTLSALFGGGTKLTVLG

>  <value.unit>
fold

>  <measured.result>
2

$$$$
>  <binder>
320-345 (antibody, human IgG1, name in Kabat numbering, V domains shown, human IgG1, lambda) VH: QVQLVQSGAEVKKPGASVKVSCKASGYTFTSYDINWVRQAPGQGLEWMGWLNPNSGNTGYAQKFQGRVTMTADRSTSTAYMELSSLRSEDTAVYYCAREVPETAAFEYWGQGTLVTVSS VL: QSVLTQPPSVSGAPGQRVTISCTSSSSDIGAGLGVHWYQQLPGTAPKLLIEGYYNRPSGVPDRFSGSKSGTSASLTITGLLPEDEGDYYCQSYDKTLSALFGGGTKLTVLG

>  <value.unit>
fold

>  <measured.result>
1

$$$$
>  <binder>
320-445 (antibody, human IgG1, name in Kabat numbering, V domains shown, human IgG1, lambda) VH: QVQLVQSGAEVKKPGASVKVSCKASGYTFTSWDINWVRQAPGQGLEWMGWLNPNSGNTGYAQKFQGRVTMTADRSTSTAYMELSSLRSEDTAVYYCAREVPETAAFEYWGQGTLVTVSS VL: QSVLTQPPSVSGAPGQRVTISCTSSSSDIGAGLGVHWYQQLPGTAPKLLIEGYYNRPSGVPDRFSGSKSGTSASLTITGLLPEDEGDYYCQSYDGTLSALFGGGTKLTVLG

>  <value.unit>
fold

>  <measured.result>
2

$$$$
>  <binder>
320-241 (antibody, human IgG1, name in Kabat numbering, V domains shown, human IgG1, lambda) VH: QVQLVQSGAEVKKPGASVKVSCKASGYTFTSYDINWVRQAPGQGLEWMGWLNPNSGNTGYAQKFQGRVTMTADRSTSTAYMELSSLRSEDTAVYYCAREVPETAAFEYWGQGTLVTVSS VL: QSVLTQPPSVSGAPGQRVTISCTSSSSDAGAGLGVHWYQQLPGTAPKLLIEGYYNRPSGVPDRFSGSKSGTSASLTITGLLPEDEGDYYCQSYDGTLSALFGGGTKLTVLG

>  <value.unit>
fold

>  <measured.result>
1

$$$$
>  <binder>
320-184 (antibody, human IgG1, name in Kabat numbering, V domains shown, human IgG1, lambda) VH: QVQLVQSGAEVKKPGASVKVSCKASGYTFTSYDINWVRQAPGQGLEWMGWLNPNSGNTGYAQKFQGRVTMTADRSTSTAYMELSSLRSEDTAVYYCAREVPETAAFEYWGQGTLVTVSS VL: QSVLTQPPSVSGAPGQRVTISCTSSSSDIGAGLGVHWYQQLPGTAPKLLIEGYYNRPSGVPDRFSGSKSGTSASLTITGLAPEDEGDYYCQSYDGTLSALFGGGTKLTVLG

>  <value.unit>
fold

>  <measured.result>
3

$$$$
>  <binder>
320-263 (antibody, human IgG1, name in Kabat numbering, V domains shown, human IgG1, lambda) VH: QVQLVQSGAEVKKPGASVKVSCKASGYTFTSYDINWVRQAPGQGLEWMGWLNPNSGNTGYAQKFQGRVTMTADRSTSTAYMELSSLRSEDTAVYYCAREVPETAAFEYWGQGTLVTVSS VL: QSVLTQPPSVSGAPGQRVTISCTSSSSDIGKGLGVHWYQQLPGTAPKLLIEGYYNRPSGVPDRFSGSKSGTSASLTITGLLPEDEGDYYCQSYDGTLSALFGGGTKLTVLG

>  <value.unit>
fold

>  <measured.result>
3

$$$$
